src = ChEMBL document CHEMBL1144272

# pKi annotations
# Target Under Test: Substance-K receptor (Homo sapiens, UniProt P21452)
# Sequence (P21452 whole entry): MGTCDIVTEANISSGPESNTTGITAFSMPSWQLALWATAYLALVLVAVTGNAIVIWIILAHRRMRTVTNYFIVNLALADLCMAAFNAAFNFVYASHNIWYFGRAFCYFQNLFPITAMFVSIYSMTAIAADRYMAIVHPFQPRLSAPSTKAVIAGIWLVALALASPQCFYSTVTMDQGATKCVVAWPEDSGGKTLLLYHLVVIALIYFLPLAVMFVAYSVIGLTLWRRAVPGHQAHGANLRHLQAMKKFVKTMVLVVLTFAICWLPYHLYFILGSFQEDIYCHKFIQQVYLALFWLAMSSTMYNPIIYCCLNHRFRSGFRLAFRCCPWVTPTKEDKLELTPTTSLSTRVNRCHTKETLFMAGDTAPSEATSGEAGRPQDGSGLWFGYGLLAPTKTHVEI
pKi: −log10 of the molar value.
Observed Property: pKi

1) O=C(Nc1ccc(Oc2ccc(F)cc2)cc1)N[C@H](Cc1ccccc1)C(=O)NCCCN1CCOCC1
< 6.51
2) O=C(Nc1ccc(OCc2cc(F)cc(F)c2)cc1)N[C@@H](Cc1ccccc1)C(=O)NCCCN1CCOCC1
6.30
3) O=C(NCCCN1CCOCC1)[C@H](Cc1ccccc1)NC(=O)N(c1ccccc1)c1ccccc1
< 5.52
4) CC(C)c1cccc(OC(C)(C)C(=O)N[C@@H](Cc2ccccc2)C(=O)NCCCN2CCOCC2)c1
< 6.00
5) CN(C(=O)N[C@H](Cc1ccccc1)C(=O)NCCCN1CCOCC1)c1cccc(Oc2ccccc2)c1
< 5.52
6) O=C(Nc1ccc(Sc2ccc(F)cc2)cc1)N[C@H](Cc1ccccc1)C(=O)NCCCN1CCOCC1
< 6.70
7) O=C(N[C@H](Cc1ccccc1)C(=O)NCCCN1CCOCC1)C(c1ccccc1)c1ccccc1
< 5.00
8) CC(C)(Nc1ccccc1)C(=O)N[C@H](Cc1ccccc1)C(=O)NCCCN1CCOCC1
< 5.52
9) CC(C)(Nc1ccccc1)C(=O)N[C@@H](Cc1ccccc1)C(=O)NCCCN1CCOCC1
< 5.52
10) CN(C(=O)N[C@@H](Cc1ccccc1)C(=O)NCCCN1CCOCC1)c1ccc(Oc2ccccc2)cc1
< 5.52

###

Target sequence: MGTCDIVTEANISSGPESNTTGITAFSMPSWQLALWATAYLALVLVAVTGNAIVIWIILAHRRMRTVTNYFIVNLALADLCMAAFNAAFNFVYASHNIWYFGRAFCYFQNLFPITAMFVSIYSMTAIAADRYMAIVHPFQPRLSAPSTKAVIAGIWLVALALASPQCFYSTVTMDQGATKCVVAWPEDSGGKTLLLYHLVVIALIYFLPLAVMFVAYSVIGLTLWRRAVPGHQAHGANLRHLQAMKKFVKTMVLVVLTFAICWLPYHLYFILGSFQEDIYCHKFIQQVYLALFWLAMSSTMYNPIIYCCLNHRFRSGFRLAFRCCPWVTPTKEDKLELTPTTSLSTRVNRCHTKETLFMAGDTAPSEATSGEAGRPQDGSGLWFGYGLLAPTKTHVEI
Observed Property: Ki

1. O=C(Nc1ccc(Oc2ccc(OC(F)(F)F)cc2)cc1)N[C@@H](Cc1ccccc1)C(=O)NCCCN1CCOCC1
> 100 nM
2. CC(C)c1cccc(OC(C)(C)C(=O)N[C@H](Cc2ccccc2)C(=O)NCCCN2CCOCC2)c1
> 1000 nM
3. CC(C)(Oc1ccc(C(F)(F)F)cc1)C(=O)N[C@@H](Cc1ccccc1)C(=O)NCCCN1CCOCC1
> 1000 nM
4. CC(C)(Oc1ccc(F)cc1)C(=O)N[C@@H](Cc1ccccc1)C(=O)NCCCN1CCOCC1
> 1000 nM
5. Cc1ccc(COc2ccc(NC(=O)N[C@H](Cc3ccccc3)C(=O)NCCCN3CCOCC3)cc2)cc1
> 1000 nM
6. O=C(NCCCN1CCOCC1)[C@@H](Cc1ccccc1)NC(=O)N1CCN(c2ccccc2)CC1
> 3000 nM
7. O=C(Nc1ccc(Oc2cccc(F)c2)cc1)N[C@H](Cc1ccccc1)C(=O)NCCCN1CCOCC1
> 1000 nM
8. O=C(Nc1ccccc1)N[C@@H](Cc1ccccc1)C(=O)NCCCN1CCOCC1
> 10000 nM
9. O=C(N[C@@H](Cc1ccccc1)C(=O)NCCCN1CCOCC1)c1ccccc1-c1ccccc1
> 10000 nM
10. CC(C)(Oc1ccc(C(F)(F)F)cc1)C(=O)N[C@H](Cc1ccccc1)C(=O)NCCCN1CCOCC1
> 1000 nM
11. CN(C(=O)N[C@@H](Cc1ccccc1)C(=O)NCCCN1CCOCC1)c1cccc(Oc2cccc(F)c2)c1
> 1000 nM
12. O=C(N[C@H](Cc1ccccc1)C(=O)NCCCN1CCOCC1)c1ccccc1-c1ccccc1
3000 nM
13. O=C(NCCCN1CCOCC1)[C@@H](Cc1ccccc1)NC(=O)N1CCCC(O)(c2ccccc2)C1 (stereo partly drawn)
> 10000 nM
